Reference source: patent US10898469B2

Quick list: IC50 per entry.
Test system: FaDu cells
Assay: Inhibition test for sphere-forming ability of cancer cells in the presence of BSA (Test Example 2), FaDu
Assay type: cell-based, human
Settings: in the presence of 5% BSA, cultured 4 days
Please give the number followed by its unit.

Study these solved cases before continuing.
O=C(/C=C/c1ccc(NCC(F)(F)F)nc1)Nc1cn(Cc2cccc(Cl)c2)cn1; 0.06 µM
COc1ccc(C(=O)Nc2cn(Cc3c(F)c(F)c(F)c(F)c3F)cn2)cc1OC; 5.64 µM
COc1ccc(C(=O)Nc2cn(Cc3ccc(F)cc3)cn2)cc1OC; 0.55 µM

Query string: Reported IC50 for COc1ccc(C(=O)Nc2cn(Cc3c(F)cccc3F)cn2)cc1OC : what is it?
Result string: 7.81 µM

Query string: What would you report for Cc1cccc(NC(=O)c2cn(Cc3cccc(Cl)c3)cn2)n1 ?
Result string: 5.19 µM

###

Experiment: Pharmacokinetic assay in tumor-bearing mice where HCT-116 cells were transplanted (Test Example 3)
Format: in vivo
Conditions: female, BALB/cAnNCrlj-nu/nu, plasma; tumor-bearing nude mouse, oral single dose 150 mg/kg, 0.5% methylcellulose, 6 hours; read-out: Plasma concentrations after oral administration, 6 hours
Quantity: concentration at 6 h (ng/mL)
Give the value in ng/mL but do not write ng/mL after it.

Query string: // concentration at 6 h lookup, key: O=C(/C=C/c1cccnc1)Nc1cn(Cc2cccc(Cl)c2)cn1 [Example 120]
Result string: 1200

###

Assay: Pharmacokinetic assay in tumor-bearing mice where HCT-116 cells were transplanted (Test Example 3)
Assay type: in vivo
Settings: female, BALB/cAnNCrlj-nu/nu, plasma; tumor-bearing nude mouse, oral single dose 60 mg/kg, 0.5% methylcellulose, 24 hours; read-out: Plasma concentrations after oral administration, 24 hours
Quantity: concentration at 24 h (ng/mL)
The reply should be a number in ng/mL, with the unit left off.

Query string: Quick check: concentration at 24 h of COc1ccc(C(=O)Nc2cn(Cc3cc(F)c(F)c(F)c3)cn2)cc1OC.Cl ?
Result string: 4

###

Assay: Pharmacokinetic assay in tumor-bearing mice where HCT-116 cells were transplanted (Test Example 3)
Format: in vivo
Settings: female, BALB/cAnNCrlj-nu/nu, plasma; tumor-bearing nude mouse, oral single dose 60 mg/kg, 0.5% methylcellulose, 2 hours; read-out: Plasma concentrations after oral administration, 2 hours
Quantity: concentration at 2 h

Query string: Suppose we examine the compound COc1ccc(C(=O)Nc2cn(Cc3cc(F)c(F)c(F)c3)cn2)cc1OC.Cl ; what concentration at 2 h value has been reported?
Result string: 9760 ng/mL

###

The compounds listed here are annotated with their pIC50.
Tested on: HCT-116 cells
Assay: Inhibition test for sphere-forming ability of cancer cells in the presence of BSA (Test Example 2), HCT-116
Assay type: cell-based, human
Details: Homo sapiens, HCT-116, 96 h, HCT-116 cells, in the presence of 5% BSA, cultured 4 days
Keep it numeric: pIC50 is minus log10 of the concentration in mol/L.

O=C(/C=C/c1cccnc1)Nc1cn(Cc2cc(F)c(F)c(F)c2)cn1 [Example 231]; 6.15
COc1ccc(C(=O)Nc2cn(Cc3cc(F)c(F)c(F)c3)cn2)cc1OC [Example 236]; 6.44
COC(=O)c1ccc(/C=C/C(=O)Nc2cn(Cc3cccc(C(F)(F)F)c3)cn2)cn1 [Example 131]; 5.04

Lab note: next compound to report on.
Query string: Quick one: pIC50 of Cc1ccc2cc(NC(=O)c3cn(Cc4cccc(Cl)c4)cn3)ccc2n1 [Example 255] ?
Result string: 6.20
